Listed here: items and their measured binding signal.
# test.system: T1, RBFOX1 RRM RbFoxmut (Fox-RRM*) (Homo sapiens, UniProt Q9NWB1 109-208, R118D;E147R;N151S;E152T)
# T1 sequence: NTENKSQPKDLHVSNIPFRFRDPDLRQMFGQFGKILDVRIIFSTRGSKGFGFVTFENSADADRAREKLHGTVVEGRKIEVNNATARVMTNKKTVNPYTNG
# procedure.summary: EMSA; HiTS-Eq, 1 nM pool, 10 min; buffer printed only for the single-RNA assays: 10 mM Tris pH 7.5, 150 mM NaCl, 3.4 mM EDTA, 0.001% NP-40, 30 C
# conditions.used: tags: His6 N-terminal (pET28a); label: 5' 32P
Over roughly 16,000 sequences, “ka relative to ugcaugu” has its median near 0.096; the highest 2% begin near 0.35. What follows is part of a selection rich in the highest values, with near analogues and random picks from the rest.

{"binder": "GUCCGGG (DNA:RNA) RNA: GGGAGACCGGAAUUCAGAUUGUCCGUCCGGGUUAAAUCCCGUCGUAGCCACCA DNA 1: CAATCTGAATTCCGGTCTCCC DNA 2: TGGTGGCTACGACGGGATT", "measure": "binding signal", "result": "0.0861 KA relative to UGCAUGU"}

For the next question, use this binder.
Task item: I would be grateful if you could share the reported binding signal for GGGUUGU (DNA:RNA) RNA: GGGAGACCGGAAUUCAGAUUGUCCGGGUUGUUUAAAUCCCGUCGUAGCCACCA DNA 1: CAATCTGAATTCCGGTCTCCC DNA 2: TGGTGGCTACGACGGGATT .
Reply: 0.448 KA relative to UGCAUGU
